# systemName: HA of H1N1 A/New Caledonia/20/1999 (influenza A virus)
# experimentalDetails: cell-based or functional assay
endpointLabel: VNA titer (nM)
Answers are plain numbers, in nM.

// query Please give measured VNA titer of the following entry: SD1071 (VHH) VHH: EVQLVESGGGLVQTGESLRLSCAFSGFTYSTYWMYWVRQGPEKGLKWVSSTNAAGTVTYYAANVRDRFTASKDNAKNTLYLQMNRLKPEDTGLYYCASKDGLIVAATLDDYDYRGQGTQVTVSS
// result 1260
